- Test system: SNB-19
- assay_summary: NCI tumour cell line growth inhibition, 48 h
Calls of active or inactive are those of the source. Rule as the data show it: active = GI50 up to about 1.1 µM and inactive = higher.
property_measured: GI50

Here's what some known entries look like.
compound	tested_on	GI50
Cc1csc2nc(-c3ccc(Cl)c([N+](=O)[O-])c3)c(/C=N/NC(=N)N)n12	SNB-19	1.3 µM (inactive)
CCCCOC(=O)CNC(=O)OCCCCC#CC#CCCCCOC(=O)NCC(=O)OCCCC	SNB-19	> 100 µM (inactive)
CCN(Cc1cc(Cl)cc(C)c1O)Cc1c(O)ccc2ccccc12	SNB-19	18.5 µM (inactive)
CNC(=O)OCc1nc(SSc2nc(COC(=O)NC)c(COC(=O)NC)n2C)n(C)c1COC(=O)NC	SNB-19	> 100 µM (inactive)
NCC(O)CSCc1ccc(Cl)cc1 (stereo unspecified)	SNB-19	> 100 µM (inactive)
O=C(Cc1nc2ccccc2s1)Nc1ccc(Cl)cc1	SNB-19	> 100 µM (inactive)

Incoming: Returns the measured GI50 for the input compound. Input: CN1CCS(=O)(=O)NC(Cc2ccccc2)C(=O)N2CCCC2C1=O (stereo unspecified)
Outgoing: > 100 µM (inactive)

* * *

- Test system: SK-MEL-5
- assay_summary: NCI tumour cell line growth inhibition, 48 h
Active and inactive are the calls of the source. Cut-off read from the data, not from the text of the source: active = GI50 up to about 1.1 µM and inactive = higher.
property_measured: GI50

compound	tested_on	GI50
O=C(Nc1cccc(Cl)c1)Nn1cnnc1	SK-MEL-5	> 100 µM (inactive)
CC(=O)OCCn1c(Cc2ccc(Cl)cc2)nn(C(C)=O)c1=O	SK-MEL-5	> 100 µM (inactive)
CCOC(=O)C1=CC(C)(C(=O)OCC)Nc2c(nc(OC)n(C)c2=O)N1 (centres undefined)	SK-MEL-5	> 10 µM (inactive)

Attention now shifts to the item below.
Incoming: Returns the measured GI50 for the input compound. Input: COc1ccc(/C=C2\CN(C)CC3C2=NC(=S)NC3c2ccc(OC)cc2)cc1 (centres undefined)
Outgoing: 4.24 µM (inactive)

* * *

Examples of compounds with documented GI50 follow.
- System: HCC 2998
- assay_summary: NCI tumour cell line growth inhibition, 48 h
Active and inactive are the calls of the source. No stated cut-off is given here; in the data, active = GI50 up to about 1.1 µM and inactive = higher.

compound	GI50
CCOc1ccccc1NC(=O)CCC(=O)OC	> 100 µM (inactive)

Attention now shifts to the item below.
Incoming: Returns the measured GI50 for the input compound. Input: CN1CCS(=O)(=O)NC(Cc2ccccc2)C(=O)N2CCCC2C1=O (stereo unspecified)
Outgoing: > 100 µM (inactive)

* * *

- Tested on: IGROV-1
- assay_summary: NCI tumour cell line growth inhibition, 48 h
Calls of active or inactive are those of the source. Cut-off read from the data, not from the text of the source: active = GI50 up to about 1.1 µM and inactive = higher.
Parameter call: string, one of active, inactive

compound	tested_on	class_label
Cc1ccc(NC(=O)C2C(=O)C(=O)N(c3ccc(C)cc3)C2=O)cc1 (stereo not given)	IGROV-1	inactive
C/C(CCc1ccccc1)=N\NC(N)=S	IGROV-1	inactive
C#Cc1cc(Br)c(OC(=O)C(C)(C)C)c(-c2cc(C#C)cc(Br)c2OC(=O)C(C)(C)C)c1	IGROV-1	inactive

Incoming: Test call, this compound: NC1=C(N2CCOCC2)C(=O)NC2=N/C(=C\c3ccccc3O)C(=O)N21
Outgoing: inactive

Incoming: Test call, this compound: Cc1c2cc[n+](C)cc2c(C)c2c1[nH]c1ccc(OCC(F)(F)F)cc12
Outgoing: inactive

Incoming: Test call, this compound: C=CCSS/C=C/C[S+]([O-])CC=C (stereo not given)
Outgoing: inactive

Incoming: Test call, this compound: CN(C)Cc1cc(O)c(O)c(CN(C)C)c1
Outgoing: inactive

Incoming: Test call, this compound: CC(C)(c1cn(Cc2ccccc2)c2ccccc12)c1cn(Cc2ccccc2)c2ccccc12
Outgoing: inactive

Incoming: Test call, this compound: CN(C)CCNc1ccc2c(=O)n(CCN(C)C)c(=O)n3c4ccc(N)cc4c(=O)c1c23
Outgoing: active

Incoming: Test call, this compound: COC1(OC)CCc2c(sc3ncnc(Nc4cccc(Br)c4)c23)C1
Outgoing: inactive

* * *

- Test system: SK-MEL-28
- assay_summary: NCI tumour cell line growth inhibition, 48 h
Activity calls are given as the source filed them. No stated cut-off is given here; in the data, active = GI50 up to about 1.1 µM and inactive = higher.
property_measured: GI50

Here's what some known entries look like.
compound	tested_on	GI50
Cc1n[nH]c(=O)n1/N=C/c1ccc([N+](=O)[O-])cc1	SK-MEL-28	> 100 µM (inactive)
C=C1CN(Cc2ccccc2)[C@@H]2CCCCC[C@H](C#N)[C@H]12	SK-MEL-28	> 100 µM (inactive)

Incoming: Returns the measured GI50 for the input compound. Input: Cc1cc(C)nc(NS(=O)(=O)c2ccc(Nc3c4ccccc4nc4c(C(=O)Nc5ccc(S(=O)(=O)N=C(N)N)cc5)ccc(Cl)c34)cc2)n1
Outgoing: > 10 µM (inactive)

Incoming: Returns the measured GI50 for the input compound. Input: N#CC12C(=O)NC(=O)C1(C#N)C1C=CC2CC1 (stereo not given)
Outgoing: > 100 µM (inactive)

Incoming: Returns the measured GI50 for the input compound. Input: CCCCCCCCCCCCC1N=C(N)N2CCCC2=C1C(=O)OC (stereo not given)
Outgoing: 1.69 µM (inactive)

* * *

- System: NCI-H460
- assay_summary: NCI tumour cell line growth inhibition, 48 h
The source made the active and inactive calls. Cut-off read from the data, not from the text of the source: active = GI50 up to about 1.1 µM and inactive = higher.
Examples of molecules with documented GI50 follow.

Here's what some known entries look like.
molecule	tested_on	property_measured	assay_result
Cn1c(=O)[nH]c2sc3c(c2c1=N)CCCC3	NCI-H460	GI50	> 75 µM (inactive)
O=c1ncccn1C1C=C(CO)C(O)C1O (configuration not stated)	NCI-H460	GI50	> 50 µM (inactive)
CN(C)Cc1cc(O)c(O)c(CN(C)C)c1	NCI-H460	GI50	21.4 µM (inactive)
Cc1cc2c(c3c1c1ccccc1n3C)C(=O)c1ccccc1C2=O	NCI-H460	GI50	> 100 µM (inactive)
CCOC(=O)C12C3CCC1C2C(=O)C3 (configuration not stated)	NCI-H460	GI50	> 100 µM (inactive)
O=C(Nc1c(O)[nH]c(=S)[nH]c1=O)c1ccccn1	NCI-H460	GI50	> 100 µM (inactive)

Attention now shifts to the item below.
Incoming: Returns the measured GI50 for the input molecule. Input: CC(SC(=O)Nc1ccc(/N=N/c2ccccc2)cc1)C(=O)O (configuration not stated)
Outgoing: > 100 µM (inactive)

* * *

Examples of compounds with documented GI50 follow.
- System: SF-539
- assay_summary: NCI tumour cell line growth inhibition, 48 h
Activity calls are given as the source filed them. No stated cut-off is given here; in the data, active = GI50 up to about 1.1 µM and inactive = higher.

Here's what some known entries look like.
compound	tested_on	GI50
Oc1cc(-c2ccccc2)nc2cc3c(cc12)OCO3	SF-539	6.05 µM (inactive)
CCCCN(CCCC)c1ccc(/N=N/c2ccc(S(=O)(=O)O)cc2)cc1	SF-539	16.7 µM (inactive)
O=C(NC(CO)CO)c1ccc2cc(C(=O)N3CC(CCl)c4ccc([N+](=O)[O-])cc43)[nH]c2c1 (stereo not given)	SF-539	> 100 µM (inactive)
O=S(=O)(N/C(=N\O)Nc1ccc(Cl)cc1)c1ccc(S(=O)(=O)c2ccccc2)s1	SF-539	24.5 µM (inactive)
COC(=O)/C=C1/CCC(C)(C(=O)NS(=O)(=O)c2ccc(C)cc2)C1(C)C (stereo not given)	SF-539	> 100 µM (inactive)

Incoming: API: value(readout=GI50, system=SF-539) for record COC(=O)C1=C(C(=O)OC)C2(C3C(SC)=CC(C)(C)CC3S1)N(Cc1ccccc1)CCN2Cc1ccccc1 (stereo not given)
Outgoing: > 100 µM (inactive)

Incoming: API: value(readout=GI50, system=SF-539) for record CC(=O)CC(N)=O
Outgoing: > 100 µM (inactive)

Incoming: API: value(readout=GI50, system=SF-539) for record Nc1ccc2c(c1)C(=O)c1ccc(F)cc1-2
Outgoing: > 100 µM (inactive)

Incoming: API: value(readout=GI50, system=SF-539) for record Cc1ccccc1C(=N)c1ccccc1Cc1cccc2ccccc12
Outgoing: 17.6 µM (inactive)

Incoming: API: value(readout=GI50, system=SF-539) for record COc1ccc(-c2nc(Nc3ccccc3)sc2Cc2sc(Nc3ccccc3)nc2-c2ccc(OC)cc2)cc1
Outgoing: > 100 µM (inactive)

* * *

- System: KM-20L2
- assay_summary: NCI tumour cell line growth inhibition, 48 h
Active and inactive are the calls of the source. Rule as the data show it: active = GI50 up to about 1.1 µM and inactive = higher.
Parameter call: string, one of active, inactive

Use the examples below as a reference point.
compound	tested_on	class_label
CC1CCC2CC(=O)OC([C@@H]3C(=O)O[C@@H](C4=CCCC4)C4C(C)CCC43)C12 (some centres undefined)	KM-20L2	inactive
O=C1C=CC(=CC=C2C=CN(CCCCCCCCCCC(=O)NCCCCCCCCCCCC(=O)O)C=C2)C=C1	KM-20L2	inactive
Cc1ccccc1CN1CC=c2ccccc2=N1	KM-20L2	inactive
O=C(c1nc2ccccc2nc1O)C(O)c1ccccc1 (centres undefined)	KM-20L2	inactive
Cc1ccc(NC(=O)C2C(=O)C(=O)N(c3ccc(C)cc3)C2=O)cc1 (centres undefined)	KM-20L2	inactive
Cc1c2cc[n+](C)cc2c(C)c2c1[nH]c1ccc(OCC(F)(F)F)cc12	KM-20L2	inactive
CC(C)(C)c1cc2nc(c1)C(C(F)(F)F)(C(F)(F)F)OB(Br)OC2(C(F)(F)F)C(F)(F)F	KM-20L2	active
Cc1cc(NS(=O)(=O)c2ccc(NC(=O)c3cccc4c(Nc5ccc(S(=O)(=O)Nc6cc(C)on6)cc5)c5ccccc5nc34)cc2)no1	KM-20L2	inactive
C[N+]1(C)CCCC1C(=O)[O-] (centres undefined)	KM-20L2	inactive
COC1C2c3ccccc3C(C#N)(Cc3ccc4c(c32)OCO4)N1C(=O)c1ccccc1 (centres undefined)	KM-20L2	inactive

Incoming: Test call, this compound: Oc1ccc(-c2c3ccccc3c(-c3ccc(O)cc3)c3ccccc23)cc1
Outgoing: inactive

Incoming: Test call, this compound: COCCOCOC(C)(C)[C@H](CCO)O[Si](c1ccccc1)(c1ccccc1)C(C)(C)C
Outgoing: inactive

Incoming: Test call, this compound: C/C(=N\NC(N)=S)c1ccc2c(c1)OCO2
Outgoing: inactive

Incoming: Test call, this compound: C[C@@H]1C[C@@H](O)[C@]2(O)O[C@@H]3C[C@@]4(C=O)[C@@H](CC[C@@H]5[C@@H]4CC[C@]4(C)[C@@H](C6=CC(=O)OC6)CC[C@]54O)C[C@H]3O[C@@H]2O1
Outgoing: active

Incoming: Test call, this compound: O=[N+]([O-])c1ccc(-c2ccc(C3=Nn4c(nnc4-c4ccc(Cl)cc4)SC3)o2)cc1
Outgoing: inactive

Incoming: Test call, this compound: O=C(CSc1nnc(Cc2ccccc2)o1)Nc1ccccc1
Outgoing: inactive

Data origin: ChEMBL document CHEMBL1201862
